assay_protocol: In vitro metabolic stability in mouse liver microsomes
conditions_used: tissue homogenate, pH 7.4
Listed here: items and their measured half-life at 5 μM.

1. CN(C)S(=O)(=O)c1cc(C(=O)O)c(OC2CCCC2)cc1NCCCCCCCC(F)(F)F
33 min
2. CCCCCCCCNc1ccc(C(=O)O)cc1S(=O)(=O)NC
12 min
3. O=C(O)c1ccc(NCCCCCCCC(F)(F)F)c(S(=O)(=O)N2CCCC2)c1
> 60 min
4. CNS(=O)(=O)c1cc(C(=O)O)ccc1NCCCCCCCC(F)(F)F
> 60 min
5. CCCCCCCCNc1ccc([N+](=O)[O-])cc1S(N)(=O)=O [Compound 7, 5-Nitro-2-(octylamino)benzenesulfonamide]
< 5 min

The molecule listed as `CCCCCCNc1ccc([N+](=O)[O-])cc1S(=O)(=O)N(C)C` has a reported half-life at 5 μM of < 5 min

The molecule identified as `O=C(O)c1ccc(NCCCCCCCC(F)(F)F)c(S(=O)(=O)N2CCCCC2)c1` registered its half-life at 5 μM at > 60 min

Form field half-life at 5 μM, entry `CN(C)S(=O)(=O)c1cc(C(=O)O)ccc1NCCCCCC(F)(F)F` : > 60 min

For `CCCCCCNc1ccc(C(=O)O)cc1S(N)(=O)=O` the molecule record lists half-life at 5 μM as > 60 min

# molecule `CCCCCCNc1ccc([N+](=O)[O-])cc1S(=O)(=O)NC` ; its half-life at 5 μM = < 5 min

GET /value?item= `O=C(O)c1ccc(NCCCCCCCC(F)(F)F)c(S(=O)(=O)NC2CCOCC2)c1` &field=half-life at 5 μM returns > 60 min

The molecule identified as `O=C(O)c1ccc(NCCCCCCCC(F)(F)F)c(S(=O)(=O)NC2CCCCC2)c1` registered its half-life at 5 μM at > 60 min

Item: `CCCCCCNc1ccc([N+](=O)[O-])cc1S(N)(=O)=O` | half-life at 5 μM: < 5 min

Memo: CCCCNc1cc(C(=O)O)cc(S(N)(=O)=O)c1Oc1ccccc1 [bumetanide, reference compound] , reported half-life at 5 μM: > 60 min

Consider `CN(C)S(=O)(=O)c1cc(C(=O)O)c(Cl)cc1NCCCCCCCC(F)(F)F` . Its measured half-life at 5 μM is > 60 min

Value of measured half-life at 5 μM for the entry `CCCCCCCCNc1ccc(C(=O)O)cc1S(=O)(=O)N(C)C` : 13 min

Entry under test: `CN(C)S(=O)(=O)c1cc(C(=O)O)ccc1NCCC(C)(C)C` . Its half-life at 5 μM was > 60 min

Kindly note the recorded half-life at 5 μM for `CN(C)S(=O)(=O)c1cc(C(=O)O)c(O)cc1NCCCCCCCC(F)(F)F` , which is > 60 min

GET /value?item= `CN(C)S(=O)(=O)c1cc(C(=O)O)ccc1NCCCC(F)(F)F` &field=half-life at 5 μM returns > 60 min

half-life at 5 μM for `CNS(=O)(=O)c1cc([N+](=O)[O-])ccc1NCCC(C)(C)C` is 6 min

half-life at 5 μM recorded for this molecule, `CCCCCCNc1ccc(C(=O)O)cc1S(=O)(=O)N(C)C` , is 17 min

Briefly, half-life at 5 μM measured for `COc1cc(NCCCCCCCC(F)(F)F)c(S(=O)(=O)N(C)C)cc1C(=O)O` : > 60 min

Looking up `COCCNc1ccc(C(=O)O)cc1S(=O)(=O)N(C)C` , I found its half-life at 5 μM recorded as > 60 min

Short answer for `CCOc1cc(NCCCCCCCC(F)(F)F)c(S(=O)(=O)N(C)C)cc1C(=O)O` : half-life at 5 μM was > 60 min
